Ki by entry:
Target: Human recombinant MMP-2 (Homo sapiens, UniProt P08253)
Construct: made in house; host or cells: MMP-2-transfected p2AHT2 cells
Sequence (P08253 110-660): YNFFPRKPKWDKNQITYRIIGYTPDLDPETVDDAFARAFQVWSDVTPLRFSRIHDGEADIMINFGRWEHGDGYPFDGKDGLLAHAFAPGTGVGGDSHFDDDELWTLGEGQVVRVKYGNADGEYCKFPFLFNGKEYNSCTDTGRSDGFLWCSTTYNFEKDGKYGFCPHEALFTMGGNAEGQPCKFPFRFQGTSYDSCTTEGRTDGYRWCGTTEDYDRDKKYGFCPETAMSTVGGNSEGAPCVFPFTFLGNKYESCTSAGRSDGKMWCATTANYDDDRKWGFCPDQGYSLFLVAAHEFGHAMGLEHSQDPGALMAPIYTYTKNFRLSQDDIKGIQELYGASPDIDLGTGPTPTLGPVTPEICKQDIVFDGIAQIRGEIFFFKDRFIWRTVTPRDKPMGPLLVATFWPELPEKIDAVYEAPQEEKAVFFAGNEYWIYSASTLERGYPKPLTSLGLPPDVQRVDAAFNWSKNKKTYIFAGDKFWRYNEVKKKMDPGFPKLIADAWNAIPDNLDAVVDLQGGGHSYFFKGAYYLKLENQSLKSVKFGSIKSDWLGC
Experiment: In vitro MMP inhibition analysis (fluorogenic peptide substrate cleavage), Ki
Type: biochemical
Conditions: Table 1
Description: Several compounds and salts were analyzed in an in vitro assay to determine their ability to inhibit the MMP cleavage of peptide substrates. Inhibition constant (Ki) were calculated from the assayed compound-MMP interactions. […] The assays from which the Ki determinations were made were performed as follows. […] In the absence of MMP inhibitory activity, substrate (I) was cleaved at the Gly-Leu bond resulting in an increase of relative fluorescence. […]
ENDPOINT NAME: Ki (nM)

[
  {
    "STRUCTURE SMILES STRING": "CCOCCOc1ccc(-c2ccc(S(=O)(=O)C3(C(=O)NO)CCOCC3)cc2)cc1",
    "RECORDED RESULT": 0.089
  },
  {
    "STRUCTURE SMILES STRING": "COCCN1CCC(C(=O)NO)(S(=O)(=O)c2ccc(-c3ccc(CCC(C)(F)F)cc3)cc2)CC1",
    "RECORDED RESULT": 0.04
  },
  {
    "STRUCTURE SMILES STRING": "CC(C)(C)N1CCC(C(=O)NO)(S(=O)(=O)c2ccc(-c3ccc(CCCC(F)(F)F)cc3)cc2)CC1",
    "RECORDED RESULT": 1.84
  }
]

====

Target: Human recombinant MMP-1 (Homo sapiens, UniProt P03956)
Construct: made in house; host or cells: MMP-1-transfected HT-1080 cells (spent media)
Sequence (P03956 100-469): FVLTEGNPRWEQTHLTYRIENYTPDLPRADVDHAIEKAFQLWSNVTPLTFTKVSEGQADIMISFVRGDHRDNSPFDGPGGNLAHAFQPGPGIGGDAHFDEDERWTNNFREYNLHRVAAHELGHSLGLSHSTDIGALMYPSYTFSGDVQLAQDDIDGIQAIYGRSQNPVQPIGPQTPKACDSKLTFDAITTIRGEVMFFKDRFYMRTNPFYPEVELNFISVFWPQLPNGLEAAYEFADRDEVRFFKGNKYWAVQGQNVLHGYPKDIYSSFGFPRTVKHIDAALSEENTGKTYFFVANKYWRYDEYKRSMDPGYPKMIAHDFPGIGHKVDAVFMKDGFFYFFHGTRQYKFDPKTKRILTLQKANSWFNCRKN
Experiment: In vitro MMP inhibition analysis (fluorogenic peptide substrate cleavage), Ki
Format: biochemical
Conditions: Table 2
pKi: −log10 of the molar value.

[
  {
    "COMPOUND": "COCCC(C(=O)NO)S(=O)(=O)c1ccc(-c2ccc(CCC(F)(F)C(F)(F)F)cc2)cc1 (stereo not drawn) [Example 177]",
    "ASSAY SYSTEM": "Human recombinant MMP-1 (Homo sapiens, UniProt P03956)",
    "pKi": "< 5.00"
  },
  {
    "COMPOUND": "CCNc1cnc(-c2ccc(S(=O)(=O)C3(C(=O)NO)CCOCC3)cc2)cn1 [Example 93]",
    "ASSAY SYSTEM": "Human recombinant MMP-1 (Homo sapiens, UniProt P03956)",
    "pKi": "< 5.00"
  },
  {
    "COMPOUND": "CCCCNc1cnc(-c2ccc(S(=O)(=O)C3(C(=O)NO)CCOCC3)cc2)cn1 [Example 83]",
    "ASSAY SYSTEM": "Human recombinant MMP-1 (Homo sapiens, UniProt P03956)",
    "pKi": "< 5.00"
  }
]
